# Lookup of reported Tm, DSF (with SYPRO Orange) keyed by entry
measured_target: hNudt16E76Q (Homo sapiens, UniProt Q96DE0, E76Q)
Construct: 4xHis (four added histidines); made in house; host or cells: E. coli Rosetta 2 (DE3), pET16b
Sequence (Q96DE0 whole entry E76Q): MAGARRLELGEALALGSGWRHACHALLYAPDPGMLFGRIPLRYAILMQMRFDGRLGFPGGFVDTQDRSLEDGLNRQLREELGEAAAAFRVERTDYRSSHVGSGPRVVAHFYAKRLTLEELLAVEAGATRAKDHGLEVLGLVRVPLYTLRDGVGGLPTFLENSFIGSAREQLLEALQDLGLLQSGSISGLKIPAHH
protocol_description: Thermal stability of hNudt16E76Q with ligands, DSF with SYPRO Orange
Format: binding
conditions: 5 µM hNudt16E76Q, 20 mM MgCl2, 0.5 mM ligand, 4× SYPRO Orange
Please respond with the number in °C and leave the unit unwritten.

Examples from the recorded data:
compound	assay_metric	test_value
Nc1nc2c(ncn2[C@@H]2O[C@H](COP(=O)(O)OP(=O)(O)OP(=O)(O)OC[C@H]3O[C@@H](n4cnc5c(=O)[nH]c(N)nc54)[C@H](O)[C@@H]3O)[C@@H](O)[C@H]2O)c(=O)[nH]1	Tm, DSF (with SYPRO Orange)	74.8
Nc1nc2c(ncn2[C@@H]2O[C@H](COP(=O)(O)OP(=O)(O)OC[C@H]3O[C@@H](n4cnc5c(=O)[nH]c(N)nc54)[C@H](O)[C@@H]3O)[C@@H](O)[C@H]2O)c(=O)[nH]1	Tm, DSF (with SYPRO Orange)	81.2
NC(=O)c1ccc[n+]([C@@H]2O[C@H](COP(=O)([O-])OP(=O)(O)OC[C@H]3O[C@@H](n4cnc5c(N)ncnc54)[C@H](O)[C@@H]3O)[C@@H](O)[C@H]2O)c1 [NAD, Nicotinamide adenine dinucleotide]	Tm, DSF (with SYPRO Orange)	63.7

Attention now shifts to the item below.
GET /value?item= O=c1[nH]cnc2c1ncn2[C@@H]1O[C@H](COP(=O)(O)OP(=O)(O)O)[C@@H](O)[C@H]1O [IDP, Inosine diphosphate] &field=Tm, DSF (with SYPRO Orange) returns 81.5
